Molecular target: Tyrosine-protein phosphatase non-receptor type 1 (Homo sapiens)
Experiment: In vitro inhibitory activity against recombinant human protein-tyrosine phosphatase 1B (PTP1B) using fluorescein diphosphate (FDP) as a substrate
Conditions: read-out: IC50
pIC50: −log10 of the molar value.
metric_name: pIC50

input_smiles: O=C(Nc1cccc2c1C(=O)C(=O)C=C2c1ccccc1)OCc1ccccc1
target_system: Tyrosine-protein phosphatase non-receptor type 1 (Homo sapiens)
metric_name: pIC50
result_value: 5.87

input_smiles: CCOC(=O)COc1ccccc1C1=CC(=O)C(=O)c2ccccc21
target_system: Tyrosine-protein phosphatase non-receptor type 1 (Homo sapiens)
metric_name: pIC50
result_value: 5.67

input_smiles: O=C1C=C(c2cc(F)ccc2F)c2ccccc2C1=O
target_system: Tyrosine-protein phosphatase non-receptor type 1 (Homo sapiens)
metric_name: pIC50
result_value: 6.30

input_smiles: O=C(Nc1ccc2c(c1)C(=O)C(=O)C=C2c1ccccc1)OCc1ccccc1
target_system: Tyrosine-protein phosphatase non-receptor type 1 (Homo sapiens)
metric_name: pIC50
result_value: 5.65

input_smiles: CN(C1=CC(=O)C(=O)c2ccccc21)c1ccccc1
target_system: Tyrosine-protein phosphatase non-receptor type 1 (Homo sapiens)
metric_name: pIC50
result_value: 4.46

input_smiles: O=C1C=C(c2cc(Cl)ccc2Cl)c2ccccc2C1=O
target_system: Tyrosine-protein phosphatase non-receptor type 1 (Homo sapiens)
metric_name: pIC50
result_value: 5.30

input_smiles: O=C1C=C(C2CCCC2)c2ccccc2C1=O
target_system: Tyrosine-protein phosphatase non-receptor type 1 (Homo sapiens)
metric_name: pIC50
result_value: 5.38

input_smiles: O=C1C=C(c2c[nH]c3ccc(C(=O)O)cc23)c2ccccc2C1=O
target_system: Tyrosine-protein phosphatase non-receptor type 1 (Homo sapiens)
metric_name: pIC50
result_value: 5.52

input_smiles: O=C1C=C(S(=O)(=O)O)c2ccccc2C1=O
target_system: Tyrosine-protein phosphatase non-receptor type 1 (Homo sapiens)
metric_name: pIC50
result_value: 5.28

input_smiles: O=C1C=C(c2c[nH]c3cc(C(=O)O)ccc23)c2ccccc2C1=O
target_system: Tyrosine-protein phosphatase non-receptor type 1 (Homo sapiens)
metric_name: pIC50
result_value: 5.34

input_smiles: O=C1C=C(c2ccccc2[N+](=O)[O-])c2ccccc2C1=O
target_system: Tyrosine-protein phosphatase non-receptor type 1 (Homo sapiens)
metric_name: pIC50
result_value: 5.93

###

Documented pIC50 across a set of molecules
Assay: In vitro inhibitory activity against recombinant […] Yop using fluorescein diphosphate (FDP) as a substrate
pIC50: −log10 of the molar value.

input_smiles: COC(=O)c1ccc(C2=CC(=O)C(=O)c3ccccc32)cc1
pIC50: 4.92
//
input_smiles: O=C1C=C(C2CCCCC2)c2ccccc2C1=O
pIC50: 4.75
//
input_smiles: O=C1C=C(c2c[nH]c3ccccc23)c2ccccc2C1=O
pIC50: 4.59
//
input_smiles: O=C1C=C(c2ccccc2)c2ccccc2C1=O
pIC50: 4.68

###

Biological target: UniProt P18031
Assay: In vitro inhibitory activity against recombinant human protein-tyrosine phosphatase 1B (PTP1B) using fluorescein diphosphate (FDP) as a substrate
Conditions: read-out: IC50
pIC50: −log10 of the molar value.
metric_name: pIC50

compound: O=C1C=C(c2ccc(-c3ccccc3)cc2)c2ccccc2C1=O
result_value: 5.27

compound: O=C1C=C(Cc2ccccc2)c2ccccc2C1=O
result_value: 5.85

compound: COc1ccc2c(c1)C(=O)C(=O)C=C2c1ccccc1
result_value: 5.69

compound: COC(=O)C(Cc1ccccc1)Oc1ccc2c(c1)C(=O)C(=O)C=C2c1ccccc1 (configuration not stated)
result_value: 5.60

compound: COc1ccc(C2=CC(=O)C(=O)c3ccccc32)cc1
result_value: 5.28

compound: CC(C)C1=CC(=O)C(=O)c2ccccc21
result_value: 4.99

compound: O=C1C=C(C2CCCCC2)c2ccccc2C1=O
result_value: 6.49

compound: COC1=CC(=O)C(=O)c2ccccc21
result_value: 4.54

compound: CCCCCOc1ccc2c(c1)C(=O)C(=O)C=C2c1ccccc1
result_value: 6.04

compound: O=C1C=C(c2ccccc2O)c2ccccc2C1=O
result_value: 5.80

compound: CCOC(=O)Nc1cccc2c1C(=O)C(=O)C=C2c1ccccc1
result_value: 6.19

compound: CCCCCOC1=C(c2ccccc2)c2ccccc2C(=O)C1=O
result_value: 5.57

###

Documented log10 of IC50 across a set of molecules
Target: Tyrosine-protein phosphatase non-receptor type 1 (Homo sapiens, UniProt P18031)
Assay: In vitro inhibitory activity against recombinant human protein-tyrosine phosphatase 1B (PTP1B) using fluorescein diphosphate (FDP) as a substrate
Conditions: read-out: IC50
metric_name: log10 of IC50 (log10 of the value in nM)

molecule: O=C1C=C(c2cccc3ccccc23)c2ccccc2C1=O
log10 of IC50: 3.33
//
molecule: CCCCCCC1=CC(=O)C(=O)c2ccccc21
log10 of IC50: 3.52
//
molecule: COC(=O)c1ccc(C2=CC(=O)C(=O)c3ccccc32)cc1
log10 of IC50: 3.19
//
molecule: O=C1C=C(n2ccc3ccccc32)c2ccc(OC(Cc3ccccc3)C(=O)O)cc2C1=O (stereo unspecified)
log10 of IC50: 3.32
//
molecule: O=C1C=C(c2ccc(O)cc2)c2ccccc2C1=O
log10 of IC50: 2.64
//
molecule: NC1=CC(=O)C(=O)c2ccccc21 [4-AMINO-[1,2]NAPHTHOQUINONE]
log10 of IC50: 4.39
//
molecule: O=C1C=C(c2ccccc2)c2ccccc2C1=O
log10 of IC50: 2.93
//
molecule: O=C1C=C(OCCCO)c2ccccc2C1=O
log10 of IC50: 4.56
//
molecule: CCOC(=O)COc1ccc(C2=CC(=O)C(=O)c3ccccc32)cc1
log10 of IC50: 3.03
//
molecule: O=C1C=C(c2c[nH]c3ccccc23)c2ccccc2C1=O
log10 of IC50: 3.05
//
molecule: CC(C)(C)c1cc(C2=CC(=O)C(=O)c3ccccc32)cc(C(C)(C)C)c1O
log10 of IC50: 3.76

###

Target: Tyrosine-protein phosphatase non-receptor type 1 (Homo sapiens, UniProt P18031)
Sequence (P18031 whole entry): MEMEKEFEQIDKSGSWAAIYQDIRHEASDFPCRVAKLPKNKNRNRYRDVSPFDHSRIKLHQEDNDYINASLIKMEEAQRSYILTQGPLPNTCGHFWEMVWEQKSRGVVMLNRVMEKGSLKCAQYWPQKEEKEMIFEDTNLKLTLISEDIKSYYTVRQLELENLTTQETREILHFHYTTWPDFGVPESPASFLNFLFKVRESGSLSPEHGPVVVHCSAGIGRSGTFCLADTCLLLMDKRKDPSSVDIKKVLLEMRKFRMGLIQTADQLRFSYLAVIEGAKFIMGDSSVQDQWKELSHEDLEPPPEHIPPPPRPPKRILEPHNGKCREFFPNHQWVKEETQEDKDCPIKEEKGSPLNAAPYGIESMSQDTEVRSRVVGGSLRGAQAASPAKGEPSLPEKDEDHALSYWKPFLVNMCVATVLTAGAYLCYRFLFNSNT
Test: Inhibition of human Protein-tyrosine phosphatase 1B (PTP1B) using fluorescein diphosphate (FDP)
metric_name: log10(IC50) (log10 of the value in nM)

input_smiles: CCOC(=O)CCC1=C(n2ccc3ccccc32)c2ccccc2C(=O)C1=O
metric_name: log10(IC50)
result_value: 2.43

input_smiles: CC(C)(C)OC(=O)COc1ccc(CC2=C(c3ccccc3)c3ccccc3C(=O)C2=O)cc1
metric_name: log10(IC50)
result_value: 3.17

input_smiles: COC(=O)CCC1=C(c2ccccc2)c2cc(CCC(=O)OC)ccc2C(=O)C1=O
metric_name: log10(IC50)
result_value: 2.83

input_smiles: COC(=O)CCc1ccc2c(c1)C(c1ccccc1)=CC(=O)C2=O
metric_name: log10(IC50)
result_value: 2.52

input_smiles: O=C(O)COc1ccc(CC2=C(c3ccccc3)c3ccccc3C(=O)C2=O)cc1
metric_name: log10(IC50)
result_value: 3.19

input_smiles: O=C1C=Cc2ccccc2C1=O
metric_name: log10(IC50)
result_value: 4.39

input_smiles: CC(C)(C)OC(=O)COc1ccc(CC2=C(n3ccc4ccccc43)c3ccccc3C(=O)C2=O)cc1
metric_name: log10(IC50)
result_value: 2.81

input_smiles: CCOC(=O)CCC1=C(c2ccccc2)c2ccccc2C(=O)C1=O
metric_name: log10(IC50)
result_value: 2.63

input_smiles: CCOC(=O)c1ccc(CCC2=C(c3ccccc3)c3ccccc3C(=O)C2=O)cc1
metric_name: log10(IC50)
result_value: 3.00

input_smiles: COC(=O)CCc1ccc2c(c1)C(n1ccc3ccccc31)=CC(=O)C2=O
metric_name: log10(IC50)
result_value: 2.96

input_smiles: COC(=O)CCC1=C(n2ccc3ccccc32)c2ccc(CCC(=O)OC)cc2C(=O)C1=O
metric_name: log10(IC50)
result_value: 2.97

input_smiles: O=C(O)COc1ccc(CC2=C(n3ccc4ccccc43)c3ccccc3C(=O)C2=O)cc1
metric_name: log10(IC50)
result_value: 3.00

input_smiles: CCN(CC)C(=O)CCC1=C(c2ccccc2)c2ccccc2C(=O)C1=O
metric_name: log10(IC50)
result_value: 2.79
